CONDITION NOTES: 318.15 K; 101.33 kPa; Liquid; Pycnometric method
# maps each entry to its mass density
Report the figure in kg/m3 without appending any unit label.

The examples below pair each entry with its known result.
CCCCCC[N+](C)(C)C.O=S(=O)([N-]S(=O)(=O)C(F)(F)F)C(F)(F)F [hexyltrimethylammonium bis[(trifluoromethyl)sulfonyl]imide] :: 1295.7
CCCCCCCCCCCCCC[P+](CCCC)(CCCC)CCCC.CCCCCCCCCCCCc1ccccc1S(=O)(=O)[O-] [tributyl(tetradecyl)phosphonium 2-dodecylbenzenesulfonate] :: 928.4

Just so you know, measured mass density for CCCCCCCCCCCCCC[P+](CCCCCC)(CCCCCC)CCCCCC.N#C[N-]C#N [tetradecyl(trihexyl)phosphonium dicyanamide] came out at 910.1

Just so you know, measured mass density for CCCCCCCC[N+](C)(CCCCCCCC)CCCCCCCC.O=S(=O)([N-]S(=O)(=O)C(F)(F)F)C(F)(F)F came out at 1073.8

====

CONDITION NOTES: 323.15 K; 101.33 kPa; Liquid; Pycnometric method
Label TRUE when mass density is strictly below 1000 kg/m3; otherwise label FALSE.

CCCCCCCCCC[N+](C)(C)C.O=S(=O)([N-]S(=O)(=O)C(F)(F)F)C(F)(F)F :: FALSE

# TODO verify mass density < 1000 kg/m3 strictly for this molecule: CCCC[N+](C)(C)C.O=S(=O)([N-]S(=O)(=O)C(F)(F)F)C(F)(F)F [butyltrimethylammonium bis(trifluoromethylsulfonyl)imide]
FALSE

# TODO verify mass density < 1000 kg/m3 strictly for this molecule: CCCCCCCCCCCCCC[P+](CCCCCC)(CCCCCC)CCCCCC.[Cl-] [trihexyl(tetradecyl)phosphonium chloride]
TRUE

# TODO verify mass density < 1000 kg/m3 strictly for this molecule: CCCCCCCCCCCCCC[P+](CCCCCC)(CCCCCC)CCCCCC.N#C[N-]C#N [tetradecyl(trihexyl)phosphonium dicyanamide]
TRUE

# TODO verify mass density < 1000 kg/m3 strictly for this molecule: CCCCCCCC[N+](C)(CCCCCCCC)CCCCCCCC.O=S(=O)([N-]S(=O)(=O)C(F)(F)F)C(F)(F)F
FALSE

# TODO verify mass density < 1000 kg/m3 strictly for this molecule: CCCCCC[N+](C)(C)C.O=S(=O)([N-]S(=O)(=O)C(F)(F)F)C(F)(F)F [hexyltrimethylammonium bis[(trifluoromethyl)sulfonyl]imide]
FALSE

# TODO verify mass density < 1000 kg/m3 strictly for this molecule: CCCCCCCCCCCCCC[P+](CCCCCC)(CCCCCC)CCCCCC.O=S(=O)([N-]S(=O)(=O)C(F)(F)F)C(F)(F)F
FALSE

# TODO verify mass density < 1000 kg/m3 strictly for this molecule: CCCCCC[N+](CC)(CC)CC.O=S(=O)([N-]S(=O)(=O)C(F)(F)F)C(F)(F)F [triethylhexylammonium bis((trifluoromethyl)sulfonyl)imide]
FALSE

# TODO verify mass density < 1000 kg/m3 strictly for this molecule: CCCCCC[N+](C)(C)CCC.O=S(=O)([N-]S(=O)(=O)C(F)(F)F)C(F)(F)F
FALSE

# TODO verify mass density < 1000 kg/m3 strictly for this molecule: CCCCCCCCCCCCCC[P+](CCCC)(CCCC)CCCC.CCCCCCCCCCCCc1ccccc1S(=O)(=O)[O-] [tributyl(tetradecyl)phosphonium 2-dodecylbenzenesulfonate]
TRUE

====

# maps each entry to its mass density
CONDITION NOTES: 313.15 K; 101.33 kPa; Liquid; Pycnometric method
Report the figure in kg/m3 without appending any unit label.

The examples below pair each entry with its known result.
CCCC[N+](C)(C)C.O=S(=O)([N-]S(=O)(=O)C(F)(F)F)C(F)(F)F [butyltrimethylammonium bis(trifluoromethylsulfonyl)imide] :: 1361.4
CCCCCCCC[N+](C)(CCCCCCCC)CCCCCCCC.O=S(=O)([N-]S(=O)(=O)C(F)(F)F)C(F)(F)F :: 1073.8
CCCCCC[N+](C)(C)CCC.O=S(=O)([N-]S(=O)(=O)C(F)(F)F)C(F)(F)F :: 1273.2

Please look at the following molecule next.
Just so you know, measured mass density for CCCCCC[N+](CC)(CC)CC.O=S(=O)([N-]S(=O)(=O)C(F)(F)F)C(F)(F)F [triethylhexylammonium bis((trifluoromethyl)sulfonyl)imide] came out at 1267.6

====

CONDITION NOTES: 333.15 K; 101.33 kPa; Liquid; Pycnometric method
Quick rule: mass density of at least 1000 kg/m3 means Condition met, below that means Condition not met.

Previously resolved entries follow.
CCCCCC[N+](C)(C)C.O=S(=O)([N-]S(=O)(=O)C(F)(F)F)C(F)(F)F [hexyltrimethylammonium bis[(trifluoromethyl)sulfonyl]imide] :: Condition met
CCCCCCCCCCCCCC[P+](CCCC)(CCCC)CCCC.CCCCCCCCCCCCc1ccccc1S(=O)(=O)[O-] [tributyl(tetradecyl)phosphonium 2-dodecylbenzenesulfonate] :: Condition not met
CCCCCCCCCC[N+](C)(C)C.O=S(=O)([N-]S(=O)(=O)C(F)(F)F)C(F)(F)F :: Condition met

Could you now consider this next compound?
Please tell me: is the compound CCCCCCCCCCCCCC[P+](CCCCCC)(CCCCCC)CCCCCC.N#C[N-]C#N [tetradecyl(trihexyl)phosphonium dicyanamide] at or over 1000 kg/m3 in terms of mass density?
Condition not met

====

CONDITION NOTES: 303.15 K; 101.33 kPa; Liquid; Pycnometric method
METRIC: mass density (kg/m3)
Report the figure in kg/m3 without appending any unit label.

CCCCCCCC[N+](C)(CCCCCCCC)CCCCCCCC.O=S(=O)([N-]S(=O)(=O)C(F)(F)F)C(F)(F)F :: 1080.3

Just so you know, measured mass density for CCCCCC[N+](CC)(CC)CC.O=S(=O)([N-]S(=O)(=O)C(F)(F)F)C(F)(F)F [triethylhexylammonium bis((trifluoromethyl)sulfonyl)imide] came out at 1275.4

Just so you know, measured mass density for CCCCCCCCCCCCCC[P+](CCCCCC)(CCCCCC)CCCCCC.N#C[N-]C#N [tetradecyl(trihexyl)phosphonium dicyanamide] came out at 917.3

Just so you know, measured mass density for CCCCCCCCCCCCCC[P+](CCCCCC)(CCCCCC)CCCCCC.O=S(=O)([N-]S(=O)(=O)C(F)(F)F)C(F)(F)F came out at 1048.3

Just so you know, measured mass density for CCCCCCCCCCCCCC[P+](CCCCCC)(CCCCCC)CCCCCC.[Cl-] [trihexyl(tetradecyl)phosphonium chloride] came out at 880.1

====

CONDITION NOTES: 328.15 K; 101.33 kPa; Liquid; Pycnometric method
# maps each entry to its mass density
Report the figure in kg/m3 without appending any unit label.

The examples below pair each entry with its known result.
CCCC[P+](CC)(CCCC)CCCC.CCOP(=O)([O-])OCC [tributylethylphosphonium diethylphosphate] :: 979.5
CCCCCCCCCCCCCC[P+](CCCCCC)(CCCCCC)CCCCCC.[Cl-] [trihexyl(tetradecyl)phosphonium chloride] :: 866.9
CCCCCCCCCCCCCC[P+](CCCC)(CCCC)CCCC.CCCCCCCCCCCCc1ccccc1S(=O)(=O)[O-] [tributyl(tetradecyl)phosphonium 2-dodecylbenzenesulfonate] :: 922.8

Just so you know, measured mass density for CCCCCC[N+](CC)(CC)CC.O=S(=O)([N-]S(=O)(=O)C(F)(F)F)C(F)(F)F [triethylhexylammonium bis((trifluoromethyl)sulfonyl)imide] came out at 1257.4

====

CONDITION NOTES: 318.15 K; 101.33 kPa; Liquid; Pycnometric method
METRIC: mass density (kg/m3)
Report the figure in kg/m3 without appending any unit label.

The examples below pair each entry with its known result.
CCCCCC[N+](CC)(CC)CC.O=S(=O)([N-]S(=O)(=O)C(F)(F)F)C(F)(F)F [triethylhexylammonium bis((trifluoromethyl)sulfonyl)imide] :: 1264.4
CCCCCCCCCCCCCC[P+](CCCCCC)(CCCCCC)CCCCCC.O=S(=O)([N-]S(=O)(=O)C(F)(F)F)C(F)(F)F :: 1039.2

Please look at the following compound next.
Just so you know, measured mass density for CCCC[P+](CC)(CCCC)CCCC.CCOP(=O)([O-])OCC [tributylethylphosphonium diethylphosphate] came out at 985.8

====

CONDITION NOTES: 303.15 K; 101.33 kPa; Liquid; Pycnometric method
METRIC: mass density (kg/m3)
Report the figure in kg/m3 without appending any unit label.

The examples below pair each entry with its known result.
CCCCCC[N+](C)(C)C.O=S(=O)([N-]S(=O)(=O)C(F)(F)F)C(F)(F)F [hexyltrimethylammonium bis[(trifluoromethyl)sulfonyl]imide] :: 1307.8
CCCC[N+](C)(C)C.O=S(=O)([N-]S(=O)(=O)C(F)(F)F)C(F)(F)F [butyltrimethylammonium bis(trifluoromethylsulfonyl)imide] :: 1368.6
CCCCCCCCCCCCCC[P+](CCCC)(CCCC)CCCC.CCCCCCCCCCCCc1ccccc1S(=O)(=O)[O-] [tributyl(tetradecyl)phosphonium 2-dodecylbenzenesulfonate] :: 937.1
CCCCCC[N+](C)(C)CCC.O=S(=O)([N-]S(=O)(=O)C(F)(F)F)C(F)(F)F :: 1281.6
CCCCCCCCCC[N+](C)(C)C.O=S(=O)([N-]S(=O)(=O)C(F)(F)F)C(F)(F)F :: 1222.2

Please look at the following compound next.
Just so you know, measured mass density for CCCC[P+](CC)(CCCC)CCCC.CCOP(=O)([O-])OCC [tributylethylphosphonium diethylphosphate] came out at 995.7
